// compounds with reported pIC50 on BRD2 (Homo sapiens (Human), UniProt P25440), multi-publication
For clarity, pIC50 is expressed as the negative log10 of concentration in mol/L.

Please review the following examples before continuing.
INSERT INTO results (compound, readout_number) VALUES
  ('COc1ccc(-c2nc3c(n2C)C(c2ccc(Cl)cc2)N(c2cc(OC)c4nnc(C)n4c2)C3=O)cn1 (stereo not drawn)', 6.96),
  ('Cc1cc(N2C(=O)c3c(C4CC4)n[nH]c3C2c2ccc(Cl)cc2)cn(C)c1=O (stereo not drawn)', 7.28),
  ('COCc1nn(C2CC2)c2c1C(c1ccc(Cl)cc1)N(c1cc(C)c(=O)n(C)c1)C2=O (racemic)', 7.09),
  ('COc1ncccc1-c1nc2c(n1C(C)C)C(c1ccc(Cl)cc1)N(c1cc(OC)c3nnn(C)c3c1)C2=O (racemic)', 6.85);

Prompt: Kindly state the measured pIC50 obtained for COc1ncccc1-c1nc2c(n1C(C)C)[C@@H](c1ccc(Cl)cc1)N(c1cc(C)c3nnc(C(F)F)n3c1)C2=O with BRD2 (Homo sapiens (Human), UniProt P25440).
Completion: 7.85

Prompt: Kindly state the measured pIC50 obtained for Cc1nn(C2CC2)c2c1C(c1ccc(Cl)cc1)N(c1cc(C)c3nnn(C)c3c1)C2=O (stereo not drawn) with BRD2 (Homo sapiens (Human), UniProt P25440).
Completion: 7.62

Prompt: Kindly state the measured pIC50 obtained for COc1ncc(-n2nc(C)c3c2C(=O)N(c2cc(C)c(=O)n(C)c2)[C@@H]3c2ccc(Cl)cc2)c(OC)n1 with BRD2 (Homo sapiens (Human), UniProt P25440).
Completion: 7.55

Prompt: Kindly state the measured pIC50 obtained for CNC(=O)n1nc2c(c1C)C(c1ccc(Cl)cc1)N(c1cc(C)c(=O)n(C)c1)C2=O (stereo not drawn) with BRD2 (Homo sapiens (Human), UniProt P25440).
Completion: 6.80

Prompt: Kindly state the measured pIC50 obtained for Cc1nn(C)c2c1C(c1ccc(Cl)cc1)N(c1cc(Cl)c(=O)n(C)c1)C2=O (stereo not drawn) with BRD2 (Homo sapiens (Human), UniProt P25440).
Completion: 6.25

Prompt: Kindly state the measured pIC50 obtained for Cc1nn(C2CC2)c2c1C(c1ccc(OC(F)(F)F)cc1)N(c1cc(C)c(=O)n(C)c1)C2=O (stereo not drawn) with BRD2 (Homo sapiens (Human), UniProt P25440).
Completion: 7.20

Prompt: Kindly state the measured pIC50 obtained for Cc1cc(N2C(=O)c3nc(C)n(C(C)C)c3[C@H]2c2ccc(Cl)cc2)nn2c(C)nnc12 with BRD2 (Homo sapiens (Human), UniProt P25440).
Completion: 7.92

Prompt: Kindly state the measured pIC50 obtained for Cc1cc(N2C(=O)c3nn(C)c(C)c3[C@@H]2c2ccc(Cl)cc2)cn(C)c1=O with BRD2 (Homo sapiens (Human), UniProt P25440).
Completion: 4.55

Prompt: Kindly state the measured pIC50 obtained for Cc1cc(N2C(=O)c3nc(-c4nccs4)n(C(C)C)c3[C@H]2c2ccc(Cl)cc2)cn(C)c1=O with BRD2 (Homo sapiens (Human), UniProt P25440).
Completion: 7.52

Prompt: Kindly state the measured pIC50 obtained for Cc1cc(N2C(=O)c3nc(-c4cccnc4F)n(C)c3C2c2ccc(Cl)cc2)cn(C)c1=O (stereo not drawn) with BRD2 (Homo sapiens (Human), UniProt P25440).
Completion: 6.74

Prompt: Kindly state the measured pIC50 obtained for CNC(=O)c1cn(C)c2c1C(=O)N(c1cc(C)c3nnc(C)n3c1)C2c1ccc(Cl)cc1 (stereo not drawn) with BRD2 (Homo sapiens (Human), UniProt P25440).
Completion: 7.80

---

pIC50: −log10 of the molar value.
// compounds with reported pIC50 on BRD2 (Homo sapiens (Human)), multi-publication
Cut-off 7 on pIC50, inclusive. At or above means true (1); below means false (0).

Consider the worked cases shown below.
INSERT INTO measurements (compound, target_of_assay, discrete_label) VALUES
  ('CCOC(=O)Nc1cc(N2C(=O)c3c(C4CC4)nn(C)c3C2c2ccc(Cl)cc2)cn2c(C)nnc12 (stereo not shown)', 'BRD2 (Homo sapiens (Human))', 'true (1)'),
  ('COc1cc(N2C(=O)c3nc(C4CCN(C)CC4)n(C(C)C)c3C2c2ccc(Cl)cc2)cc2c1nnn2C (stereo not shown)', 'BRD2 (Homo sapiens (Human))', 'true (1)'),
  ('COc1ncccc1-n1nc(C)c2c1C(=O)N(c1cc(C)c(=O)n(C)c1)[C@@H]2c1ccc(Cl)cc1', 'BRD2 (Homo sapiens (Human))', 'true (1)'),
  ('Cc1[nH]nc2c1C(c1ccc(Cl)cc1)N(c1cc(Cl)c(=O)n(C)c1)C2=O (stereo not shown)', 'BRD2 (Homo sapiens (Human))', 'false (0)');

Prompt: # bool: pIC50 of Cc1cc(N2C(=O)c3c(C4CC4)cn(C4CN(C)C4)c3C2c2ccc(Cl)cc2)nc2c1nnn2C (stereo not shown) >= 7
Completion: true (1)

Prompt: # bool: pIC50 of Cc1nnc2c(NC(=O)OC(C)(C)C)cc(N3C(=O)c4c(C5CC5)nn(C)c4C3c3ccc(Cl)cc3)cn12 (stereo not shown) >= 7
Completion: true (1)

---

// molecules with reported IC50 on BRD2 (Homo sapiens (Human), UniProt P25440), multi-publication
Please state the figure in nM; there is no need to write the unit.

INSERT INTO assay_data (molecule, target_of_assay, measurement_name, readout_number) VALUES
  ('Cc1cc(N2C(=O)c3cc(C4=CCOCC4)n(C)c3C2c2ccc(Cl)cc2)cn2c(C)nnc12 (stereo not shown)', 'BRD2 (Homo sapiens (Human), UniProt P25440)', 'IC50', 62),
  ('Cc1nc(C)c(-c2nc3c(n2C(C)C)C(c2ccc(Cl)cc2)N(c2cc(C)c(=O)n(C)c2)C3=O)s1 (stereo not shown)', 'BRD2 (Homo sapiens (Human), UniProt P25440)', 'IC50', 120),
  ('COc1ccc(-c2nc3c([nH]2)[C@@H](c2ccc(Cl)cc2)N(c2cc(C)c4nnc(C)n4c2)C3=O)cn1', 'BRD2 (Homo sapiens (Human), UniProt P25440)', 'IC50', 4700);

Prompt: Kindly state the measured IC50 obtained for COc1ncccc1-c1nn(C)c2c1C(=O)N(c1cc(C)c3nnc(C)n3c1)[C@@H]2c1ccc(Cl)cc1 with BRD2 (Homo sapiens (Human), UniProt P25440).
Completion: 34

---

// compounds with reported pIC50 on BRD2 (Homo sapiens (Human)), multi-publication
For clarity, pIC50 is expressed as the negative log10 of concentration in mol/L.

INSERT INTO assay_data (compound, readout_number) VALUES
  ('CC(=O)N1CC(n2cc(C3CC3)c3c2C(c2ccc(Cl)cc2)N(c2cc(C)c4nnn(C)c4n2)C3=O)C1 (centres unmarked)', 7.89),
  ('Cc1cc(N2C(=O)c3nc(C4=CCN(C)CC4)n(C(C)C)c3C2c2ccc(Cl)cc2)cc2c1nnn2C (centres unmarked)', 7.32),
  ('Cc1cc(N2C(=O)c3nc(C4=CCOCC4)n(C(C)C)c3C2c2ccc(Cl)cc2)cc2c1nnn2C (centres unmarked)', 7.34);

Prompt: # query: pIC50 of entry CNc1cc(N2C(=O)c3c(c(C)nn3C3CC3)[C@H]2c2ccc(Cl)cc2)nn2c(C)nnc12
Completion: 7.48

Prompt: # query: pIC50 of entry COc1ccc(-c2nc3c(n2C)C(=O)N(c2cc(C)c(=O)n(C)c2)C3c2ccc(Cl)cc2)cn1 (centres unmarked)
Completion: 7.06

Prompt: # query: pIC50 of entry CC(=O)N1CC=C(c2nc3c(n2C(C)C)C(c2ccc(Cl)cc2)N(c2cc(C)c4nnc(C)n4c2)C3=O)CC1 (centres unmarked)
Completion: 7.07

Prompt: # query: pIC50 of entry Cc1nn(C2COC2)c2c1C(c1ccc(Cl)cc1)N(c1cc(C)c3nnc(C)n3c1)C2=O (centres unmarked)
Completion: 7.04

---

pIC50: −log10 of the molar value.
// compounds with reported pIC50 on BRD2 (Homo sapiens (Human), UniProt P25440), multi-publication
Cut-off 7 on pIC50, inclusive. At or above means 1 (yes); below means 0 (no).

Consider the worked cases shown below.
INSERT INTO measurements (compound, discrete_label) VALUES
  ('COc1ncccc1-c1nc2c([nH]1)[C@@H](c1ccc(Cl)cc1)N(c1cc(C)c(=O)n(C)c1)C2=O', '1 (yes)'),
  ('COc1ncccc1-c1nn(C)c2c1C(=O)N(c1cc(C)c3nnc(C)n3c1)C2c1ccc(Cl)cc1 (racemic)', '1 (yes)'),
  ('CC(=O)Nc1cn(C)c2c1C(=O)N(c1cc(C)c3nnc(C)n3c1)C2c1ccc(Cl)cc1 (stereo not drawn)', '1 (yes)'),
  ('COc1ccc(-c2nc3c(n2C)C(=O)N(c2cc(C)c(=O)n(C)c2)[C@@H]3c2ccc(Cl)cc2)cn1', '1 (yes)'),
  ('COc1ncc(-c2cc3c(n2C)C(c2ccc(Cl)cc2)N(c2cc(Cl)c(=O)n(C)c2)C3=O)c(OC)n1 (stereo not drawn)', '0 (no)'),
  ('COCn1cc(C)c2c1C(c1ccc(Cl)cc1)N(c1cc(C)c3nnn(C)c3n1)C2=O (stereo not drawn)', '1 (yes)'),
  ('COc1ccc(-c2nc3c([nH]2)[C@@H](c2ccc(Cl)cc2)N(c2cc(OC)c4nnc(C)n4c2)C3=O)cn1', '0 (no)'),
  ('Cc1nn(C2CC2)c2c1C(c1ccc(Cl)cc1)N(c1cc(C)c3nnn(C)c3n1)C2=O (stereo not drawn)', '1 (yes)');

Prompt: # bool: pIC50 of Cc1cc(N2C(=O)c3nc(C4CCOCC4)n(C(C)C)c3[C@H]2c2ccc(Cl)cc2)cn2c(C)nnc12 >= 7
Completion: 1 (yes)

Prompt: # bool: pIC50 of CCn1c(C)nc2c1C(=O)N(c1cc(C)c3nnn(C)c3c1)[C@@H]2c1ccc(Cl)cc1 >= 7
Completion: 1 (yes)
